- method notes: gradient 5% acetonitrile 3 min, to 50% in 2 min, to 85% in 15 min, held 3 min, 100 µL/min
- cond: column: Zorbax Extend-C18 2.1 x 50 mm; eluents: water / acetonitrile, 0.1% formic acid
Assignment: determine reported RP-LC retention time for the given compounds.

Provide RP-LC retention time for all items below, preserving their order.
1. O=C(Nc1ccccc1)N(Cc1nnc2n1CCCCC2)c1ccc2c(c1)OCO2
2. COCCNC(=O)c1nc2ccccn2c1-c1ccc(F)cc1
3. COC(=O)c1cc(S(=O)(=O)N2CCCC2C(=O)Nc2cc(C)ccc2C)cn1C (stereo unspecified)
4. CCC1CCCCN1C(=O)CN1CCn2c1nc(C)c(C)c2=O (stereo unspecified)
5. Cc1nc(C(=O)NCC(=O)O)c(O)c2ccc(Oc3ccccc3)cc12

[out]
["703 s", "699 s", "901 s", "618 s", "793 s"]

Provide RP-LC retention time for all items below, preserving their order.
1. COc1ccc(-c2cn3c(CC(=O)NC4CCCCC4)csc3n2)cc1OC
2. COc1ccc(CNC(=O)Cn2cc(-c3nnc(C)o3)ccc2=O)cc1
3. Cc1ccc(Oc2ccc(NS(=O)(=O)c3cccs3)cc2)nn1
4. CN(C)C(=O)c1csc(S(=O)(=O)N2CCC(C(=O)NCc3cccnc3)CC2)c1

[out]
702 s
635 s
687 s
579 s
